Sourced from PubChem BioAssay

Test system: transactivating tegument protein VP16 (Human herpesvirus 1)
Assay: VP16 transactivation reporter inhibitors, counter-screen for SRC2 inhibitor project, cell-based, luminescence, single concentration (AID 652007)
Conditions: cell-based VP16 transactivation luciferase reporter, at 8.9 µM
Activity calls are given as the source filed them. Cut-off read from the data, not from the text of the source: active = inhibition above about 36%; inactive = the rest.
Pick one: label 1 for active, label 0 for inactive

compound=O=C(Nc1ccc2oc(=O)c(C(=O)O)cc2c1)Oc1ccccc1 label_value="label 0"

Which outcome was assigned to "O=C(CSc1nc2[nH]c(=O)[nH]c(=O)c2s1)Nc1cccc(F)c1" in this test?
label 0

====

Below, each entry is listed alongside its reported inhibition.
Tested on: transactivating tegument protein VP16 (Human herpesvirus 1)
Assay: VP16 transactivation reporter inhibitors, counter-screen for SRC2 inhibitor project, cell-based, luminescence, single concentration (AID 652007)
Conditions: cell-based VP16 transactivation luciferase reporter, at 8.9 µM, stronger effect = higher value
Calls of active or inactive are those of the source. Rule as the data show it: active = inhibition above about 36%; inactive = the rest.

Some solved entries appear below for comparison.
molecule=CCOc1cccc(/C=N/NC(=S)Nc2ccccc2[N+](=O)[O-])c1O study_system="transactivating tegument protein VP16 (Human herpesvirus 1)" value_measured="39.7% (active)"
molecule=COc1ccc(C(=O)Nc2nc(-c3ccc(S(=O)(=O)N4CCOCC4)cc3)cs2)cc1 study_system="transactivating tegument protein VP16 (Human herpesvirus 1)" value_measured="16.2% (inactive)"
molecule=CCc1nc(N)nc(N)c1-c1ccc(Cl)c([N+](=O)[O-])c1 study_system="transactivating tegument protein VP16 (Human herpesvirus 1)" value_measured="28.1% (inactive)"
molecule="COc1ccc(/C=C2\\SC(=S)N(CCCC(=O)N3CCCCC3CCO)C2=O)cc1 (stereo not drawn)" study_system="transactivating tegument protein VP16 (Human herpesvirus 1)" value_measured="61% (active)"
molecule=CCCN(CCC)C1=CC(=[N+]2CCCC2)CC(C)(C)C1 study_system="transactivating tegument protein VP16 (Human herpesvirus 1)" value_measured="29% (inactive)"
molecule=Cc1ccc2nc(C)cc(Nc3ccc4c(c3)OCCO4)c2c1 study_system="transactivating tegument protein VP16 (Human herpesvirus 1)" value_measured="-23.7% (inactive)"

Form: Entry = CCC(C)[C@H](NC(=O)C1CC(=O)N(c2ccc(OC)cc2)C1)C(=O)N1CCCCC1 (stereo partly drawn) | System = transactivating tegument protein VP16 (Human herpesvirus 1) | inhibition = ____
6.37% (inactive)

Also "O=[N+]([O-])c1ccc(Sc2nnnn2-c2ccccc2)nc1" ?
12.5% (inactive)

Also "Cc1cccc(C(=O)Nc2ccc(CC(=O)O)cc2)c1" ?
-2.26% (inactive)

Also "COc1ccc(/C=C2\SC(=O)N(CCCC(=O)Nc3cc(Cl)ccc3C(=O)O)C2=O)cc1" ?
93.9% (active)

Also "CN=c1scc(-c2ccccc2F)n1/N=C/c1ccc[nH]1" ?
87.7% (active)

Also "Cc1sc(NC(=O)CSc2nnnn2C(C)C)c(C#N)c1C" ?
2.68% (inactive)

Also "CCOc1ccccc1OCCCCOc1ccccc1F" ?
-9.29% (inactive)

Also "Cc1csc(SCC(=O)c2cc(C)n(Cc3cccs3)c2C)n1" ?
-28.2% (inactive)

====

Test: StAR promoter reporter inhibitors, counter-screen for LRH-1 inverse agonist project, cell-based, luminescence, high throughput (AID 651611)
Details: StAR promoter luciferase reporter counterscreen, at 3.6 µM
Calls of active or inactive are those of the source. No stated cut-off is given here; in the data, active means inhibition above about 28%; inactive means the rest.
Pick one: Y (active), N (inactive)

compound=Cc1cccc(/C=C(\c2nc3ccccc3[nH]2)S(=O)(=O)c2ccccc2)c1 label_value=Y
compound=CCCCOc1ccc(Br)cc1CSC(=N)N label_value=N
compound=O=C(NC(Nc1nc2ccc([N+](=O)[O-])cc2s1)(C(F)(F)F)C(F)(F)F)c1cccnc1 label_value=Y

Which outcome was assigned to COC(=O)CC1(C(=O)OC)Oc2ccc(Br)cc2C(=O)N1c1cc(Cl)c(Cl)cc1Cl (stereo not given) in this test?
N

Also "COc1cc(/C=N/NC(N)=S)cc(Br)c1OCc1ccccc1F" ?
Y

====

Test system: HIV-1 integrase (multimerization)
Assay: HIV-1 IN multimer formation enhancers, counter-screen for LEDGF/p75 integration inhibitor project, biochemical, TR-FRET (AID 1053131)
Details: TR-FRET HIV-1 integrase multimerization, at 7.7 µM, stronger effect = higher value
The other results are listed elsewhere or left out.
measurement_kind: activation (%)
Lab book: enter the figure in %, no units written.

compound=Cc1cc(C(=O)NN=C/C=C/c2ccco2)n[nH]1 value_measured=10.3

Form: Entry = "COc1cc(/C=C2\CCCc3c2nc2ccccc2c3C(=O)O)cc(Cl)c1O" | System = HIV-1 integrase (multimerization) | activation = ____
-1.15

Also "CC(=NCc1ccc2c(c1)OCO2)C1=C(O)c2ccccc2C1=O" ?
0.56

Also "C=CC1=C(C(=O)O)N2C(=O)[C@@H](NC(=O)/C(=N/OCC(=O)O)c3csc(N)n3)[C@H]2SC1" ?
42.3

Also "Nc1ccc2nc3c(=O)[nH]c(=S)[nH]c3nc2c1" ?
48.6

====

Biological target: Nuclear receptor coactivator 1 (Homo sapiens) (UniProt Q15788)
Sequence (Q15788 whole entry, looked up): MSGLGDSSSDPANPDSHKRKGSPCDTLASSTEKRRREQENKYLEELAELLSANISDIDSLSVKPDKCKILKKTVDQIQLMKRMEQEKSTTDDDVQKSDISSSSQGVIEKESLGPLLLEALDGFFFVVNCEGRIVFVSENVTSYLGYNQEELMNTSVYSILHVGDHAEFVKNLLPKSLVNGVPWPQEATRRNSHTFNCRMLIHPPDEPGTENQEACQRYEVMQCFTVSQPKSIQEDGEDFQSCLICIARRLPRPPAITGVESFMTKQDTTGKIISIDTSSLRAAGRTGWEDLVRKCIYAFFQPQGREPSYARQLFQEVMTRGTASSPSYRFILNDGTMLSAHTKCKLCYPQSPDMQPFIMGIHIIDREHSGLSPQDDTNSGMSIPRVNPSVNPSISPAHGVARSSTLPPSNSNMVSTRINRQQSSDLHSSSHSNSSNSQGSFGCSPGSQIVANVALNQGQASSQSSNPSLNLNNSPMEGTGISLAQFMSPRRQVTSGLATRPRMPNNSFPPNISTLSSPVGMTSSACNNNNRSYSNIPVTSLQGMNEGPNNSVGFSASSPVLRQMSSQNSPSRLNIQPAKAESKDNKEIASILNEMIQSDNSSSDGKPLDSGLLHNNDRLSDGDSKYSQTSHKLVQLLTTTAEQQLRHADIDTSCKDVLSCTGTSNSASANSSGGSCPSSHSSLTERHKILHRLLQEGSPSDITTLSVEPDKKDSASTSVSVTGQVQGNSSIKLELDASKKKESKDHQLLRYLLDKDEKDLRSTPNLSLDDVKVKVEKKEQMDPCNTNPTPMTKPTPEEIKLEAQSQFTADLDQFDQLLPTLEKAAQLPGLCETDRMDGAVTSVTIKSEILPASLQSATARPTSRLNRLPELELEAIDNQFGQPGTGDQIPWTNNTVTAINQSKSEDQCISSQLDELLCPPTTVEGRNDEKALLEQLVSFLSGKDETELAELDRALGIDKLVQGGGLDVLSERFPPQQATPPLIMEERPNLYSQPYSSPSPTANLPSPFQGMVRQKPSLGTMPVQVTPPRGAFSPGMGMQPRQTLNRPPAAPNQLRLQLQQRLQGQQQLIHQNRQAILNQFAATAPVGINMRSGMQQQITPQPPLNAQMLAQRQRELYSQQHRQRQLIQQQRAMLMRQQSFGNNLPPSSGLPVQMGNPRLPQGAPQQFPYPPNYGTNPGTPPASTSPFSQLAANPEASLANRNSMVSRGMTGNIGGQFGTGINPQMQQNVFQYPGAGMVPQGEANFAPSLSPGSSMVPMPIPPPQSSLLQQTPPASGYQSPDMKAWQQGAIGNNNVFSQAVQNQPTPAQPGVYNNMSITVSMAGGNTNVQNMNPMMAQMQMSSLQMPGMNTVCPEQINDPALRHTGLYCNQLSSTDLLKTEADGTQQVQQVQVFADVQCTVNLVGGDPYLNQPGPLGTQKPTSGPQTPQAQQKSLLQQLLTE
Test: SRC1 coactivator transcriptional activity inhibitors, confirmation, cell-based, luminescence, quadruplicate (AID 588820);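 note: 0% = DMSO wells and 100% = gossypol 36 µM treated wells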
Conditions: HEK293 GAL4-SRC1 luciferase reporter, at 3.6 µM
Active and inactive are the calls of the source.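 The calls were made as follows: active = mean inhibition above 46.68%, the untreated control wells mean plus 3 SD; inactive = the rest.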
Pick one: TRUE (active), FALSE (inactive)

Look over these answered cases.
compound="Cc1cccc(C)c1-c1ccc(CN2C(CC(C)C)C(=O)N(Cc3cn(CC4CCCCC4)nn3)CCS2(=O)=O)cc1 (stereo not given)" label_value=FALSE
compound=CCCCCCCCCCn1ccc(=N)cc1 label_value=TRUE
compound=O=C(CN1C(=O)c2ccccc2S1(=O)=O)c1ccc2c(c1)OCCO2 label_value=TRUE
compound=CN1CCc2c(OCc3ccc(F)cc3)cccc2C1=O label_value=FALSE
compound=Cc1nc(N)nc(N)c1/C=C/C(C)(C)c1ccc(Cl)cc1 label_value=TRUE
compound="CC(CNC(=O)c1cc(COc2ccc3ncccc3c2)on1)c1ccccc1 (stereo not given)" label_value=FALSE

Which outcome was assigned to COc1ccc(-n2c(SC(C)C(=O)Nc3ncc(Cl)cc3Cl)nc3ccccc32)cc1 (stereo not given) in this test?
FALSE

Also "C=C1C(=O)[C@@]23[C@H](O)C[C@@H]4C(C)(C)CC[C@H](O)[C@@]4(C)[C@@H]2CC[C@@H]1[C@H]3O" ?
FALSE

Also "Cc1cc(C(=O)NNc2ccc(F)cc2)no1" ?
FALSE

Also "CC(=O)c1c(C)[nH]c(C(=O)OCC(=O)Nc2cccc(S(=O)(=O)N3CCCC3)c2)c1C" ?
FALSE

====

Below, each entry is listed alongside its reported inhibition.
Assay: StAR promoter reporter inhibitors, counter-screen for LRH-1 inverse agonist project, cell-based, luminescence, high throughput (AID 651611)
Conditions: StAR promoter luciferase reporter counterscreen, at 3.6 µM, stronger effect = higher value
Lab book: enter the figure in %, no units written.

Some solved entries appear below for comparison.
compound=S=C(NCCc1ccccc1)Nc1cccc2cnccc12 measurement_kind=inhibition value_measured=-5.25
compound=COc1ccc(OCc2nnc3n2N=C(c2ccc(C)cc2)CS3)cc1 measurement_kind=inhibition value_measured=-0.29
compound=CCCc1cc(=O)oc2c(C)c(OCC(=O)NCCN3CCOCC3)ccc12 measurement_kind=inhibition value_measured=6.59
compound=CC1(C)CC(N2CCCC2)=CC(=[N+]2CCCCCC2)C1 measurement_kind=inhibition value_measured=0.24
compound=CN1CCN(c2ccccc2NC(=O)c2ccc(-c3cccc([N+](=O)[O-])c3)o2)CC1 measurement_kind=inhibition value_measured=11.9

Returns the measured inhibition for the input compound. Input: "O=C1C(Nc2ccccc2)=C(N2CCCCC2)C(=O)c2ccccc21"
-2.41

Also "O=C(NCc1cccnc1)c1cccn2c(=O)c3sccc3nc12" ?
17.9

====

Test system: transactivating tegument protein VP16 (Human herpesvirus 1)
Assay: VP16 transactivation reporter inhibitors, counter-screen for SRC2 inhibitor project, cell-based, luminescence, single concentration (AID 652007)
Details: cell-based VP16 transactivation luciferase reporter, at 8.9 µM
Calls of active or inactive are those of the source. No stated cut-off is given here; in the data, active means inhibition above about 36%; inactive means the rest.
Pick one: active, inactive

molecule=Cc1ccc2nc(C(F)(F)F)c(C#N)c(N)c2c1 label_value=inactive
molecule="CC1(C(=O)NS(=O)(=O)Cc2ccccc2C(F)(F)F)CCN1C(=O)c1ccco1 (centres undefined)" label_value=inactive
molecule=CN(C)S(=O)(=O)N1CCC(Oc2cccc(C(=O)NC3CCCCC3)c2)CC1 label_value=inactive
molecule=C[C@H]1O[C@@H](O[C@H]2[C@@H](O)C[C@H](O[C@H]3[C@@H](O)C[C@H](O[C@H]4CC[C@@]5(C)[C@H](CC[C@@H]6[C@@H]5C[C@@H](O)[C@]5(C)[C@@H](C7=CC(=O)OC7)CC[C@]65O)C4)O[C@@H]3C)O[C@@H]2C)C[C@H](O)[C@@H]1O label_value=active
molecule=O=C(CSCc1ccc(C(=O)O)cc1)Nc1ccccc1 label_value=inactive
molecule=CCOc1cc(/C=C/C(=O)c2ccc(C)cc2)ccc1OCC(=O)N(C)C label_value=inactive

Which outcome was assigned to "OCCCNc1nccc(-c2cc(Nc3cccc(Cl)c3)ncn2)n1" in this test?
active

Also "O=C(c1ccc(NS(=O)(=O)c2cccc(F)c2)cc1)N1CCCCC1" ?
inactive

Also "COc1cc(NC(=O)CSc2nnc3c(C)cc4cc(C)cc(C)c4n23)c(C(=O)O)cc1OC" ?
inactive
